# Tested on: MS2 coat protein
# MEASUREMENT PROTOCOL: apparent KD of MS2 coat protein; designed switch direction (-1 OFF switch, 1 ON switch): -1; higher = weaker reporter binding
# MEASUREMENT PARAMETERS: input ligand: FMN 200 uM
Where apparent KD of MS2 coat protein equals or exceeds 90 nM, the correct label is met; where it does not, the label is not met.

Solved cases (5 shown):
{"BIOPOLYMER SEQUENCE": "UUUUUAUAUGAAGGAUAUACUUAACAUGAGGAUCACCCAUGUGGUGUUGUGAGUGAGUGAGUUUAGUAGAAGGUCAAGUAUUCU [JMF's solution 40] (Eterna round: R96, puzzle: Exclusion NG 2)", "CLASSIFICATION": "met"}
{"BIOPOLYMER SEQUENCE": "AAAUAGCUAGAGGAUAUUGGAUAGGAUUUAAUACGAGAAGGUUAGACAUGAGGAUCACCCAUGUUGUGUUGGGA [EX6 #17] (Eterna round: R97, puzzle: Exclusion 6)", "CLASSIFICATION": "not met"}
{"BIOPOLYMER SEQUENCE": "AGGAUACGAGGAUAUACGCGGAGACCUCAGGGUCUACAAACACAUGAGGAUCACCCAUGUAGAAGGCGUACCAG [Eternabot (Original) Solution 11] (Eterna round: R97, puzzle: Exclusion 2)", "CLASSIFICATION": "met"}
{"BIOPOLYMER SEQUENCE": "CCCUCACAUGAGGAUCACCCAUGUCAGGAUAUCUCAGUGCAUCCACACGGACGCAUCAAGAGAAGGGACAAAAC [Ququ] (Eterna round: R97, puzzle: Exclusion 1)", "CLASSIFICATION": "not met"}
{"BIOPOLYMER SEQUENCE": "AUUAUGUUAGGAUAUGCUUAUGGUGGAUAGUCCAGUAUGGUGCAGAAGGGACAUGAGGAUCACCCAUGUGCUGA [EX4 #32] (Eterna round: R97, puzzle: Exclusion 4)", "CLASSIFICATION": "not met"}

Inquiry: Exam item: decide whether the reported apparent KD of MS2 coat protein for CCGAAACAUGAGGAUCACCCAUGUCAGGAUAUUCCAAAAUCGUCGAAAGACGAUAACAGAAGAAGGGACAUCGG [Fiskxlusion 1 - Jieux - Exclusion 1] (Eterna round: R97, puzzle: Exclusion 1) is at least 90 nM.
Reply text: met

---

# Tested on: MS2 coat protein
# MEASUREMENT PROTOCOL: apparent KD of MS2 coat protein, switch ON state; designed switch direction (-1 OFF switch, 1 ON switch): -1; higher = weaker reporter binding
# MEASUREMENT PARAMETERS: FMN input: 0 or 200 uM; Eterna round: R93 (includes R88 designs)
Record form. Attribute: apparent KD of MS2 coat protein. Fill in for each entry.
Quick note: unit goes after the number.

The following sequences each have a reported value; give each one's apparent KD of MS2 coat protein.
1. AAAAAACAUGAGGAUCACCCAUGUGAGGAUAUCGCUAGUCAGUCAUCAGAGUGAGUGAUGAGAAGGCACAUAAA [Brourd 613 Mod 6 - Jieux - Exclusion 1]
2. AAGAAAGCAGGAUAUACAUGAGGAUCACCCAUGUAAAAGAAAGAAAGGGAAAAGAAAAGUAGAAGGGCUAAGAA [Usermaatre-setepenre Pami]
3. AAGAACAGAGGAUAUACAUGAAAGAAAGAAAAGAAAAGAAAACAUGAGGAUCACCCAUGUAGAAGGCUGAAGAA [EteRNA is fun!]
4. AAGAAGUCAGGAUAUGCUAAAGAAAUGAAAAGAAAGAAAGAACAUGAGGAUCACCCAUGUAGAAGGGACAAGAA [Dedumose I]
5. AUAAAGUAAGGAUAUGCGAAUAAAUAAGUAGACGAAUGAAAGCAGAAGGUACAUGAGGAUCACCCAUGUAAGAA [Ex 4 Tesla 2]
6. AAGAGUACAGGAUAUACAUGAAAAGAGUCGAAAGACUCAAAACAUGAGGAUCACCCAUGUAGAAGGGUACUCAA [Hyphema Seclusion Mod 62% 2]

Reply text:
["0.0263 µM", "0.0236 µM", "0.0281 µM", "0.0471 µM", "0.0303 µM", "0.137 µM"]

The following sequences each have a reported value; give each one's apparent KD of MS2 coat protein.
1. AACUGACAUGAGGAUCACCCAUGUCAGGAUAUGACUUGACGAAAAAAAACACGUCAUGUCAGAAGGGACAUGGA [Design 89: Sub-opt Z]
2. AAAAACCUAGGAUAUACAUGAGGAUCACCCAUGUAAAGAAACAAAAAGGGAAAAACAAGUAGAAGGAGGAAGAA [JR_Exc003_Sub1202]
3. AAGAAGUCAGGAUAUGCGAAUCGAUAAGAACGUCAAAGAAAGCAGAAGGGACAUGAGGAUCACCCAUGUAAAGA [Opal 39]
4. AAAAAACAUGAGGAUCACCCAUGUGAGGAUAUCUGAAAAAAAAAAAAAAAAAAGAAAAAGAGAAGGCGCAAAGA [Ex 1 #2]

Reply text:
0.0218 µM
0.0163 µM
0.0307 µM
0.038 µM

These data points were gathered from the supplement of paper PMC9170038.
